# System: Wild type
# test: S. aureus survival, RN4220 and DeltatarO strains – OD600, teichoic acid synthesis inhibitors, primary screen (AID 463173)
# condition-parameters: S. aureus RN4220 wild type/DeltatarO growth, OD600, 18 h, active compounds read low, screened at 18.75 µg/mL (by protocol)
Screen size: about 52,000 compounds; about 1,700 (3.3%) were called active. Shown is part of a subset that was picked to be rich in actives.
With a cut-off of 40%, any survival strictly below it is called class 1; any survival meeting it or above is called class 0.

COc1cc2c(cc1OC)C(COc1cc(C)cc(C)c1)N(C(=O)c1ccc(S(=O)(=O)N3CCCC3)cc1)CC2 (centres undefined) | class 0
CCn1c(=O)cc(SCC(=O)NCc2cccc(Cl)c2)c2ccccc21 | class 0
COc1cc2c(cc1OC)C(COc1ccccc1OC)N(C(=O)c1ccc(S(=O)(=O)N3CCCC3)cc1)CC2 (centres undefined) | class 1
Cc1ccc(Cn2c(=O)n(Cc3ccccc3Cl)c(=O)c3ccccc32)cc1 | class 0
CCCS(=O)(=O)N1CCN(Cc2ccc(OC)c(OCC)c2)CC1 | class 0

(Q) Problem: For the molecule `CCn1c2ccccc2c2cc(CN3CCN(Cc4cccc(Cl)c4)CC3)ccc21` , is survival under 40%?
(A) class 1

(Q) Confirm or reject: survival of `CCn1c2ccccc2c2cc(CN3CCN(Cc4ccc(OC)c(OC)c4)CC3)ccc21` lies strictly below 40%
(A) class 1

(Q) Please state whether survival is below 40% for `CCn1c2ccccc2c2cc(CN3CCN(Cc4cc(OC)c(O)c(OC)c4)CC3)ccc21`
(A) class 0

(Q) Threshold test, survival < 40%: COc1cc2c(cc1OC)C(COc1ccc(F)cc1)N(C(=O)c1ccc(S(=O)(=O)N3CCCC3)cc1)CC2 (centres undefined)
(A) class 0
